Test: Cytotoxicity vs HEp-2 cells (colony formation, % survival)
Settings: human, hep-2 cells, Average % S, 0.03 mM, -H4 U, average
Measurement Type: viability at 48 h, 30 µM

Looking up Nc1nc(=O)n([C@H]2C[C@H](O)[C@@H](CO)O2)cc1C(F)(F)F [F3 methyl dC, 5-trifluoromethyl-2'-deoxycytidine] , I found its viability at 48 h, 30 µM recorded as < 0.01%

----------
Test: Survival / toxicity in the mouse
Conditions: in vivo, coadministered with H4 U, for 7 days
Measurement Type: LD50 at 168 h (mg/kg)
Output spec: scalar in mg/kg, unitless text.

Looking up Nc1nc(=O)n([C@H]2C[C@H](O)[C@@H](CO)O2)cc1C(F)(F)F , I found its LD50 at 168 h recorded as 325
